Biological target: Human Thyroid Hormone Receptor β1 (TRβ1) (Homo sapiens, UniProt P10828)
Sequence (P10828 1-461): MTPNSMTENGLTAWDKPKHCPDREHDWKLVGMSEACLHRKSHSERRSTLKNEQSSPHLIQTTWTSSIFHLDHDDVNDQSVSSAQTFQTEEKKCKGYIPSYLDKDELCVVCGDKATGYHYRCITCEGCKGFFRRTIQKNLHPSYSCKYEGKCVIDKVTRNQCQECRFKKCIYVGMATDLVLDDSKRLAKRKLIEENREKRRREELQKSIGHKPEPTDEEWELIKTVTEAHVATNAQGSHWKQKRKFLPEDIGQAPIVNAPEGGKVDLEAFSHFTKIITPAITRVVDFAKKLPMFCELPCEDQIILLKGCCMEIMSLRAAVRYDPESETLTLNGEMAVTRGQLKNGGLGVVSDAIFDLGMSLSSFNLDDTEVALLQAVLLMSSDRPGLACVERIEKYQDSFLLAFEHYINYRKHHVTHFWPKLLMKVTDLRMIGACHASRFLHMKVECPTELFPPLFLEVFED
Assay: Transcription activation test of human thyroid hormone receptor β1 (luciferase reporter in 293T cells)
Details: EC50 of transcription activation on TRβ1, 293T cells, luciferase activity after 24 hr; read-out: TRβ
measure: EC50

// known answers, use as guide
>  <molecule>
COc1c(OCc2noc(=O)[nH]2)cc(C)c(Cc2ccc(O)c(C3CCCCC3)n2)c1C [Example 107]

>  <EC50>
10 nM

$$$$
>  <molecule>
COCC1(c2nc(Cc3c(C)cc(OCc4noc(=O)[nH]4)c(F)c3C)ccc2O)CCCCC1 [Example 268]

>  <EC50>
1 nM

$$$$

We now examine a further molecule.
EC50 recorded for this molecule, Cc1cccc(-c2nc(Cc3c(C)cc(OCc4noc(=O)[nH]4)c(F)c3C)ccc2O)c1F [Example 60] , is 0.6 nM

###

Molecular target: Human Thyroid Hormone Receptor α1 (TRα1) (Homo sapiens, UniProt P10827)
Construct: expressed in transfected cells; host or cells: 293T cells
Sequence (P10827 1-410 isoform P10827-2): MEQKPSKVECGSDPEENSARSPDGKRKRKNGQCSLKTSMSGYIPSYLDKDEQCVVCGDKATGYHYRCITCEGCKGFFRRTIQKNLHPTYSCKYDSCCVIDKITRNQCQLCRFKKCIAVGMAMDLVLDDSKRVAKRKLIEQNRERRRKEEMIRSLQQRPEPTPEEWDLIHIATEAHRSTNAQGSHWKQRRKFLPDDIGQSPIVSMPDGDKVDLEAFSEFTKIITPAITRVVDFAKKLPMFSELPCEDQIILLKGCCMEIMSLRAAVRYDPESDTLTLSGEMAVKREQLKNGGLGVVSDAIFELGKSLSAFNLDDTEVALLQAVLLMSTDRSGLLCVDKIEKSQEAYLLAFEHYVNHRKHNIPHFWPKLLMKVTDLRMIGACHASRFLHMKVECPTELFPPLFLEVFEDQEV
Test: Transcription activation test of human thyroid hormone receptor α1 (luciferase reporter in 293T cells)
Assay type: cell-based
Details: ratio TRα/TRβ of the transcription activation EC50 values
measure: selectivity (TRα/TRβ)

>  <givenSmiles>
Cc1cc(OCc2noc(=O)[nH]2)c(F)c(C)c1Cc1ccc(O)c(C(C)C)n1

>  <selectivity (TRα/TRβ)>
B (2<(TRα/TRβ)<5)

$$$$
>  <givenSmiles>
Cc1cc(OCc2noc(=O)[nH]2)cc(C)c1Cc1ccc(O)c(-c2ccc3c(c2)CCCC3)n1

>  <selectivity (TRα/TRβ)>
A (5<(TRα/TRβ))

$$$$
>  <givenSmiles>
Cc1cc(NC(=O)CC(=O)O)c(C)c(C)c1Cc1ccc(O)c(C2CCCCC2)n1

>  <selectivity (TRα/TRβ)>
B (2<(TRα/TRβ)<5)

$$$$
>  <givenSmiles>
Cc1cc(CC(=O)O)c(C)c(C)c1Cc1ccc(O)c(C2CCCCC2)n1

>  <selectivity (TRα/TRβ)>
B (2<(TRα/TRβ)<5)

$$$$
>  <givenSmiles>
Cc1cc(OCc2noc(=O)[nH]2)cc(C)c1Cc1ccc(O)c(C(C)C)n1

>  <selectivity (TRα/TRβ)>
C (2>(TRα/TRβ))

$$$$
>  <givenSmiles>
Cc1cc(OCC(=O)O)c(C)c(C)c1Cc1ccc(O)c(-c2cccc(Cl)c2)n1

>  <selectivity (TRα/TRβ)>
A (5<(TRα/TRβ))

$$$$
>  <givenSmiles>
Cc1cc(OCC(=O)O)c(C)c(C)c1Cc1nc(C2CCCCC2)c(O)cc1F

>  <selectivity (TRα/TRβ)>
A (5<(TRα/TRβ))

$$$$
>  <givenSmiles>
Cc1cc(CCC(=O)O)c(C)c(C)c1Cc1ccc(O)c(C2CCCCC2)n1

>  <selectivity (TRα/TRβ)>
C (2>(TRα/TRβ))

$$$$

Could I get selectivity (TRα/TRβ) for every one of these entries?
1. Cc1cc(C(=O)NCC(=O)O)cc(C)c1Cc1ccc(O)c(C2CCCCC2)n1
2. Cc1cc(OCC(=O)O)c(C)c(C)c1Oc1ccc(O)c(C2CCCCC2)n1

Result:
1: B (2<(TRα/TRβ)<5); 2: B (2<(TRα/TRβ)<5)
